tested on: Alopecurus myosuroides (ALOMY); assay: Post-emergence herbicidal activity, glasshouse pot test; type: in vivo; conditions: Alopecurus myosuroides, 312 h, rate 250 g/ha, evaluated after 13 days, 100=total damage to plant, 0=no damage to plant
METRIC: pest or weed control at 250 g/ha (%)
Express the result in % but write the number alone.

Cc1cc(Br)ccc1Oc1cc(C)c(C2=C(O)[C@H]3[C@@H](C2=O)[C@@H]2CC[C@H]3O2)c(C)c1 [Compound A-13] has a reported pest or weed control at 250 g/ha of 80

Cc1cc(Oc2ccccc2F)cc(C)c1C1=C(O)[C@H]2[C@@H](C1=O)[C@@H]1CC[C@H]2O1 [Compound A-5] has a reported pest or weed control at 250 g/ha of 60

Cc1cc(Oc2cnc3cc(Cl)ccc3n2)cc(C)c1C1=C(O)[C@H]2[C@H]3CC[C@H](C3)[C@H]2C1=O [Compound A-16] has a reported pest or weed control at 250 g/ha of 30

Cc1cc(Oc2ccccc2Cl)cc(C)c1C1=C(O)[C@H]2[C@@H](C1=O)[C@@H]1CC[C@H]2O1 [Compound A-10] has a reported pest or weed control at 250 g/ha of 10

CCc1cc(Oc2ccc3cc(Cl)ccc3n2)ccc1C1=C(O)[C@H]2[C@@H](C1=O)[C@@H]1CC[C@H]2O1 [Compound A-38] has a reported pest or weed control at 250 g/ha of 90

Cc1cc(Oc2ccc(C(F)(F)F)cn2)cc(C)c1C1=C(O)C2C(C1=O)[C@H]1CC[C@@H]2CC1 (some centres unmarked) [Compound A-19] has a reported pest or weed control at 250 g/ha of 10

Cc1cc(Oc2ncc(Cl)cc2Cl)cc(C)c1C1=C(O)[C@H]2[C@@H](C1=O)[C@@H]1CC[C@H]2O1 [Compound A-26] has a reported pest or weed control at 250 g/ha of 100

Cc1cc(Oc2cc(F)ccc2F)cc(C)c1C1=C(O)[C@H]2[C@@H](C1=O)[C@@H]1CC[C@H]2O1 [Compound A-9] has a reported pest or weed control at 250 g/ha of 60

CCc1cc(Oc2ccc(Cl)cc2)ccc1C1=C(O)[C@H]2[C@@H](C1=O)[C@@H]1CC[C@H]2O1 [Compound A-2] has a reported pest or weed control at 250 g/ha of 90

Cc1cc(Oc2ccc(Cl)cc2)cc(C)c1C1=C(O)CC(CC2CCOCC2)C1=O (centres unmarked) [Compound A-34] has a reported pest or weed control at 250 g/ha of 80

CCc1cc(Oc2ccc(Cl)cc2)ccc1C1=C(O)CCC1=O [Compound A-32] has a reported pest or weed control at 250 g/ha of 0

Cc1cc(Oc2cnc3cc(Cl)ccc3n2)cc(C)c1C1=C(O)C2C(C1=O)[C@H]1CC[C@@H]2CC1 (some centres unmarked) [Compound A-21] has a reported pest or weed control at 250 g/ha of 10

Cc1cc(Oc2ccc(Br)cc2Cl)cc(C)c1C1=C(O)[C@H]2[C@@H](C1=O)[C@@H]1CC[C@H]2O1 [Compound A-12] has a reported pest or weed control at 250 g/ha of 80

Cc1cc(Oc2ccc3cc(Cl)ccc3n2)cc(C)c1C1=C(O)CC(CC2CCOCC2)C1=O (centres unmarked) [Compound A-37] has a reported pest or weed control at 250 g/ha of 50
